System: Staphylococcus aureus
assay summary: Antibacterial activity against Staphylococcus aureus at 50 ug/ml after 24 hrs by agar well diffusion method
Type: functional
conditions: read-out: DIZ
property name: zone of inhibition at 50 µg/mL (mm)
Give the number; mm is assumed, so skip it.

Report zone of inhibition at 50 µg/mL for Cc1ccc(NS(=O)(=O)Cc2nnc(CS(=O)(=O)C3CNN=C3S(=O)(=O)c3ccc(C)cc3)s2)cc1 (stereo not drawn)
11

Specify zone of inhibition at 50 µg/mL for O=S(=O)(/C=C/S(=O)(=O)c1ccccc1)Cc1nnc(CS(=O)(=O)Nc2ccccc2)s1 and stop.
19

Entry O=S(=O)(/C=C/S(=O)(=O)c1ccc(Cl)cc1)Cc1nnc(CS(=O)(=O)Nc2ccc(Cl)cc2)o1 needs its zone of inhibition at 50 µg/mL filled in; supply it.
14

Specify measured zone of inhibition at 50 µg/mL for Nn1c(CS(=O)(=O)Nc2ccc(Cl)cc2)nnc1CS(=O)(=O)c1c[nH]cc1S(=O)(=O)c1ccc(Cl)cc1 .
30

For the compound Nn1c(CS(=O)(=O)Nc2ccccc2)nnc1CS(=O)(=O)c1c[nH]nc1S(=O)(=O)c1ccccc1 , give its measured zone of inhibition at 50 µg/mL value.
19

Fill in reported zone of inhibition at 50 µg/mL for this entry: O=S(=O)(/C=C/S(=O)(=O)c1ccccc1)Cc1nnc(CS(=O)(=O)Nc2ccccc2)o1
10

Specify reported zone of inhibition at 50 µg/mL for the compound shown: O=S(=O)(Cc1nnc(CS(=O)(=O)c2c[nH]cc2S(=O)(=O)c2ccccc2)s1)Nc1ccccc1
15

Write down zone of inhibition at 50 µg/mL measured for item Nn1c(CS(=O)(=O)/C=C/S(=O)(=O)c2ccc(Cl)cc2)nnc1CS(=O)(=O)Nc1ccc(Cl)cc1
32
